Experiment: Pharmacokinetic experiment in mice (PO)
Type: in vivo
Conditions: ICR, mouse, plasma, 10 mg/kg, 10 mpk, read-out: Half life t1/2 (converted)
Endpoint Name: half-life (h)
State the answer as a number, implicitly in h.

Sample records with half-life:
Query Smiles | Display Unit | Numeric Value
[2H]C([2H])([2H])NS(=O)(=O)CCCNc1nonc1/C(=N/O)Nc1ccc(F)c(Br)c1 | h | 2.5
CCNS(=O)(=O)CCCNc1nonc1C(=NO)Nc1ccc(F)c(Br)c1 | h | 2.87

Prompt: I have this compound here, NS(=O)(=O)CCNc1nonc1C(=NO)Nc1ccc(F)c(Br)c1 , and I need its recorded half-life.
Completion: 1.28

Prompt: Tell me the measured half-life of CNS(=O)(=O)CCCNc1nonc1/C(=N/O)Nc1ccc(F)c(Br)c1 , please.
Completion: 1.15

====

Assay: Metabolic stability in mouse liver microsomes
Assay type: in vitro ADME
Conditions: mouse liver microsomes 0.5 mg/mL; read-out: Mouse liver microsomes Half-life t1/2
Endpoint Name: half-life at 2 µM
Please state the number and follow it with the unit.

Some entries whose results are on file:
Compound | Result
NS(=O)(=O)CCNc1nonc1C(=NO)Nc1ccc(F)c(Br)c1 | 48 min
CNS(=O)(=O)CCCNc1nonc1/C(=N/O)Nc1ccc(F)c(Br)c1 | 10 min
CCNS(=O)(=O)CCCNc1nonc1C(=NO)Nc1ccc(F)c(Br)c1 | 23 min
NS(=O)(=O)CCCCNc1nonc1C(=NO)Nc1ccc(F)c(Br)c1 | 87 min
NS(=O)(=O)NCCNc1nonc1C(=NO)Nc1ccc(F)c(Br)c1 [INCB024360, reference compound] | 78 min

Now for the compound whose half-life at 2 µM we want.
Prompt: Could you tell me which half-life at 2 µM is on file for [2H]C([2H])([2H])NS(=O)(=O)CCCNc1nonc1/C(=N/O)Nc1ccc(F)c(Br)c1 ?
Completion: 21 min

====

Assay: Metabolic stability in rat liver microsomes
Assay type: in vitro ADME
Settings: rat liver microsomes 0.5 mg/mL; read-out: Rat liver microsomes Half-life t1/2
Output YES for half-life at 2 µM not less than 70 min; output NO otherwise.

Solved entries:
Molecule | Cat
[2H]C([2H])([2H])NS(=O)(=O)CCCNc1nonc1/C(=N/O)Nc1ccc(F)c(Br)c1 [Example 27] | NO
CNS(=O)(=O)CCCNc1nonc1/C(=N/O)Nc1ccc(F)c(Br)c1 [Example 11] | NO
CCNS(=O)(=O)CCCNc1nonc1C(=NO)Nc1ccc(F)c(Br)c1 [Example 12] | NO
NS(=O)(=O)CCNc1nonc1C(=NO)Nc1ccc(F)c(Br)c1 [Example 1] | YES
NS(=O)(=O)CCCCNc1nonc1C(=NO)Nc1ccc(F)c(Br)c1 [Example 22] | YES

Prompt: Does half-life at 2 µM meet or surpass 70 min for NS(=O)(=O)NCCNc1nonc1C(=NO)Nc1ccc(F)c(Br)c1 [INCB024360, reference compound] ?
Completion: YES

====

Experiment: Pharmacokinetic experiment in mice (PO)
Type: in vivo
Details: ICR, mouse, plasma, 10 mg/kg, 10 mpk, read-out: Blood concentration Cmax
Endpoint Name: Cmax (ng/mL)
Record the value in ng/mL, omitting the unit from your answer.

Query Smiles | Numeric Value
CCNS(=O)(=O)CCCNc1nonc1C(=NO)Nc1ccc(F)c(Br)c1 | 704
NS(=O)(=O)CCNc1nonc1C(=NO)Nc1ccc(F)c(Br)c1 | 555

Prompt: I would be grateful if you could share the reported Cmax for CNS(=O)(=O)CCCNc1nonc1/C(=N/O)Nc1ccc(F)c(Br)c1 .
Completion: 687

Prompt: Any idea what Cmax was measured for [2H]C([2H])([2H])NS(=O)(=O)CCCNc1nonc1/C(=N/O)Nc1ccc(F)c(Br)c1 ?
Completion: 469
